Data provenance is paper PMC9403717.

- measured.on: AKR1C3 (Homo sapiens)
- Construct: made in house
- Sequence (P42330 1-323): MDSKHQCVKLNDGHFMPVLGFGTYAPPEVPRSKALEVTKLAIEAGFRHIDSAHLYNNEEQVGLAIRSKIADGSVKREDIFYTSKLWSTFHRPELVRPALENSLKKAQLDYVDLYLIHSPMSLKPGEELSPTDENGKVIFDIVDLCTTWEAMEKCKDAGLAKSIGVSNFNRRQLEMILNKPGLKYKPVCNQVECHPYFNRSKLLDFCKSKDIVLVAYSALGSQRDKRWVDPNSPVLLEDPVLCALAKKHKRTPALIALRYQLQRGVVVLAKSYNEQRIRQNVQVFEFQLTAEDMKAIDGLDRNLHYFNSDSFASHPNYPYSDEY
- run.description: Inhibition of recombinant AKR1C3, oxidation of 1-acenaphthenol, progress-curve analysis
- Type: biochemical
- settings: AKR1C3; reversible binding to holoenzyme E-NADH; read-out: K3
measured.attribute: Ki (nM)
One number for each entry, in nM.

Reference set (2 entries):
{"molecule.smiles": "CN(C)c1ccc(C(=CC(=O)C(F)(F)F)[O][Ru][Cl])cc1.Cc1ccc(C(C)C)cc1", "Ki (nM)": 306}
{"molecule.smiles": "Cc1ccc(C(C)C)cc1.O=C(C=C([O][Ru][Cl])c1ccc2c(c1)OCO2)C(F)(F)F", "Ki (nM)": 150}

Now for a further compound.
Under AKR1C3 (Homo sapiens): Ki value of `Cc1ccc(C(C)C)cc1.O=C(C=C([O][Ru][Cl])c1ccc(I)cc1)C(F)(F)F` ?
163
